experiment: AUC in rat at 5 mg/kg, po; assay type: ADME, organism-based; set-up: dose 5 mg/kg, route oral; conditions: plasma
testReadout: AUC (ng·h/mL)
Numbers only here, please. The scale is ng·h/mL.

QUERY: // lookup AUC for CC(C)CC[C@@]1(C)C(=O)C(C2=NS(=O)(=O)c3cc(NS(C)(=O)=O)ccc3N2)=C(O)c2ccccc21
RESULT: 3300

###

experiment: Half life in dog at 5 mg/kg, po; type: ADME, organism-based, Canis lupus familiaris; set-up: dose 5 mg/kg, route oral; settings: in vivo
testReadout: half-life (min)
Numbers only here, please. The scale is min.

QUERY: // lookup half-life for CC(C)CC[C@@]1(C)C(=O)C(C2=NS(=O)(=O)c3cc(NS(C)(=O)=O)ccc3N2)=C(O)c2ccccc21
RESULT: 642

###

system: Hepatitis C virus; assay: Antiviral activity against HCV 1a H77 with NS5B polymerase G554D mutation infected in chimpanzee measured on day 5; assay type: functional, organism-based, Hepacivirus hominis; conditions: genotype 1a H77, 120 h
testReadout: EC50 (nM)
Numbers only here, please. The scale is nM.

QUERY: // lookup EC50 for CC(C)CC[C@@]1(C)C(=O)C(C2=NS(=O)(=O)c3cc(NS(C)(=O)=O)ccc3N2)=C(O)c2ccccc21
RESULT: 4.5

QUERY: // lookup EC50 for COc1ccc2c(O[C@@H]3C[C@H]4C(=O)N[C@]5(C(=O)O)C[C@H]5/C=C\CCCCC[C@H](NC(=O)OC5CCCC5)C(=O)N4C3)cc(-c3csc(NC(C)C)n3)nc2c1 [CILUPREVIR]
RESULT: 3.1

###

experiment: Cmax in monkey at 5 mg/kg, po; assay type: ADME, organism-based, Macaca mulatta; design: dose 5 mg/kg, route oral; details: rhesus monkey, in vivo
testReadout: Cmax (ng/mL)
Numbers only here, please. The scale is ng/mL.

QUERY: // lookup Cmax for CC(C)CC[C@@]1(C)C(=O)C(C2=NS(=O)(=O)c3cc(NS(C)(=O)=O)ccc3N2)=C(O)c2ccccc21
RESULT: 520

###

tested on: Hepatitis C virus; experiment: Antiviral activity against HCV 1b strain N with NS5B polymerase C316Y mutation infected in chimpanzee measured on day 11; assay type: functional, organism-based, Hepacivirus hominis; settings: genotype 1b strain N, 264 h
The following compounds are listed with their measured pEC50 values.
Just so you know, pEC50 here is -log10 of the concentration in molar units; reply with that number alone.

CC(C)CC[C@@]1(C)C(=O)C(C2=NS(=O)(=O)c3cc(NS(C)(=O)=O)ccc3N2)=C(O)c2ccccc21: 5.74

QUERY: // lookup pEC50 for COc1ccc2c(O[C@@H]3C[C@H]4C(=O)N[C@]5(C(=O)O)C[C@H]5/C=C\CCCCC[C@H](NC(=O)OC5CCCC5)C(=O)N4C3)cc(-c3csc(NC(C)C)n3)nc2c1 [CILUPREVIR]
RESULT: 8.96

###

test: Inhibition of HCV 1a H77 NS5B polymerase by [3H]UTP incorporation assay; set-up: species or system Hepatitis C virus (isolate H77)
testReadout: pIC50
Just so you know, pIC50 here is -log10 of the concentration in molar units; reply with that number alone.

QUERY: // lookup pIC50 for CC(C)CC[C@@]1(C)C(=O)C(C2=NS(=O)(=O)c3cc(NS(C)(=O)=O)ccc3N2)=C(O)c2ccccc21
RESULT: 8.90
